Every entry's value here was drawn from patent US5068340A.

# Tested on: PAF-induced hypotension
# assay notes: Inhibition of PAF-induced hypotension (rat, i.v.)
# Format: in vivo, rats of the Wistar-Imamichi strain
# condition set: 50% inhibitory dose, intravenous, cumulative doses, 10 ng/kg i.v. 1-C16:0 PAF, Inactin anesthesia, rats, read-out: Inhibition of Hypotension ID50
readout label: ED50 (mg/kg)
Your answer should be a plain number; it is taken to be in mg/kg.

Per the reported PAF-induced hypotension data, CCCCCCCCCCCCCCCCCNC(=O)OCC(COC(=O)NCCCCC[n+]1ccsc1)Oc1cc(C)on1.[Br-] (racemic) [Example 33] has ED50 of 0.086

Per the reported PAF-induced hypotension data, CCCCCCCCCCCCCCCc1cc(OCC(COCCCCCCC[n+]2ccsc2)Oc2cc(C)on2)no1 (racemic) [Example 24] has ED50 of 0.03

Per the reported PAF-induced hypotension data, CCCCCCCCCCCCCCCCCNC(=O)OCC(COP(=O)([O-])OCC[n+]1ccsc1)Oc1cc(C)on1 (racemic) [Example 18] has ED50 of 0.081

---

# Test system: PAF-induced hypotension
# assay notes: Inhibition of PAF-induced hypotension (rat, i.v.)
# Type: in vivo, rats of the Wistar-Imamichi strain
# condition set: 50% inhibitory dose, intravenous, cumulative doses, 10 ng/kg i.v. 1-C16:0 PAF, Inactin anesthesia, rats, read-out: Inhibition of Hypotension ID50
I'd be grateful if you could share measured ED50 for these entries.
Your answer should be a plain number; it is taken to be in mg/kg.

Recorded result, CCCCCCCCCCCCCCCCCNC(=O)OCC(COC(=O)N(Cc1cccc[n+]1CC)C(C)=O)Oc1ccon1 (racemic) [Example 38] , ED50: 0.004

Recorded result, CCCCCCCCCCCCCCCCCCNC(=O)OCC(COP(=O)([O-])OCC[n+]1ccsc1)OC (stereo not drawn) [CV-3988, reference compound] , ED50: 0.415

Recorded result, CCCCCCCCCCCCCCCCCNC(=O)OCC(COP(=O)([O-])OCC[n+]1ccsc1)Oc1ccon1 (racemic) [Example 13] , ED50: 0.096

Recorded result, CCCCCCCCCCCCCCCc1cc(OCC(COC(=O)NCCCCC[n+]2ccsc2)Oc2cc(C)on2)no1 (racemic) [Example 25] , ED50: 0.055

Recorded result, CCCCCCCCCCCCCCCc1cc(OCC(COP(=O)([O-])OCCCCCC[n+]2ccsc2)Oc2cc(C)on2)no1 (racemic) [Example 23] , ED50: 0.067

Recorded result, CCCCCCCCCCCCCCCCc1cc(OC[C@H](COC(=O)N[C@H](CCCCC[n+]2ccsc2)C(=O)OCC)Oc2ccon2)no1.CS(=O)(=O)[O-] (racemic) [Example 41] , ED50: 0.054
